System: Saccharomyces cerevisiae
Experiment: protein stability index of tFT-peptide fusion (C-terminal peptide) (PSI (0-1 scale)); higher = more stable (slower turnover)
Settings: genetic background: das1 deletion; temperature: 30 C
Each entry below lists one item and its recorded protein stability index value.
Reply with just the number.

// query Which protein stability index reading was recorded for the sequence RVKSLKVGRKSQ [PAL1 C-terminal 12 aa] ?
// result 0.688

// query Which protein stability index reading was recorded for the sequence KINKNGLLENIL [IES3 C-terminal 12 aa] ?
// result 0.702

// query Which protein stability index reading was recorded for the sequence FQPLLKKNQVGY [THI3 C-terminal 12 aa] ?
// result 0.704

// query Which protein stability index reading was recorded for the sequence RQTKAFISKFMT [DBR1 C-terminal 12 aa] ?
// result 0.721

// query Which protein stability index reading was recorded for the sequence QIRSVFSGVYGG [ASP3-1 C-terminal 12 aa] ?
// result 0.691

* * *

System: Saccharomyces cerevisiae
Test: protein stability index of tFT-peptide fusion (C-terminal peptide) (PSI (0-1 scale)); higher = more stable (slower turnover)
Conditions: genetic background: wild type; temperature: 30 C
Each entry below lists one item and its recorded protein stability index value.
Reply with just the number.

Completed entries (count: 4):
| sequenceData | experimentalSystem | testReadout | numericResult |
| --- | --- | --- | --- |
| WGRGRGEMVGRT | Saccharomyces cerevisiae | protein stability index | 0.705 |
| SPTGTPIIPSYP | Saccharomyces cerevisiae | protein stability index | 0.684 |
| SSGNSVDCFGHQ | Saccharomyces cerevisiae | protein stability index | 0.696 |
| PPPRSPRSLPPL | Saccharomyces cerevisiae | protein stability index | 0.676 |

// query Find the measured protein stability index: item PPLFPPLAPLHR , target or system Saccharomyces cerevisiae.
// result 0.72

// query Find the measured protein stability index: item GTEKRDSDKIIL , target or system Saccharomyces cerevisiae.
// result 0.68

// query Find the measured protein stability index: item SLICLSVGVLLR , target or system Saccharomyces cerevisiae.
// result 0.292

// query Find the measured protein stability index: item PLPLLSLPRFPL , target or system Saccharomyces cerevisiae.
// result 0.753

// query Find the measured protein stability index: item GARGCSATGPPG , target or system Saccharomyces cerevisiae.
// result 0.61

// query Find the measured protein stability index: item GNLVSFCTKKGA , target or system Saccharomyces cerevisiae.
// result 0.722

// query Find the measured protein stability index: item RKRTILVIIVVK , target or system Saccharomyces cerevisiae.
// result 0.338

// query Find the measured protein stability index: item FVRCLFSSGCFF , target or system Saccharomyces cerevisiae.
// result 0.728

// query Find the measured protein stability index: item PCLVLSLYSDLP , target or system Saccharomyces cerevisiae.
// result 0.68

// query Find the measured protein stability index: item PPGPPPPPAPPL , target or system Saccharomyces cerevisiae.
// result 0.724

* * *

Each entry below lists one item and its recorded protein stability index value.
Tested on: Saccharomyces cerevisiae
Experiment: protein stability index of tFT-peptide fusion (C-terminal peptide) (PSI (0-1 scale)); higher = more stable (slower turnover)
Settings: genetic background: wild type; temperature: 30 C
Reply with just the number.

Completed entries (count: 5):
| sequenceData | protein stability index |
| --- | --- |
| SGVGCGRSRWVW | 0.626 |
| SGSDGLLVGAPG | 0.666 |
| KSLYLVDDRVGR | 0.764 |
| GGSCGFGQGAGG | 0.685 |
| KVQGGGKYPTYS | 0.699 |

// query Which protein stability index reading was recorded for the sequence QGKRRREDGIGG ?
// result 0.711

// query Which protein stability index reading was recorded for the sequence PLFSPPFLPFSL ?
// result 0.711

// query Which protein stability index reading was recorded for the sequence ASPLSIPPLSPS ?
// result 0.633

// query Which protein stability index reading was recorded for the sequence PSPPYPPPSLPH ?
// result 0.69

// query Which protein stability index reading was recorded for the sequence VACLVGVRGSWV ?
// result 0.667

* * *

Each entry below lists one item and its recorded protein stability index value.
Tested on: Saccharomyces cerevisiae
Experiment: protein stability index of tFT-peptide fusion in deletion strain of DAS1 (PSI (0-1 scale)); higher = more stable (slower turnover)
Reply with just the number.

| sequenceData | testReadout | numericResult |
| --- | --- | --- |
| VRGAVGGWRLVN | protein stability index | 0.673 |
| FSMRWTFRYWEN | protein stability index | 0.54 |
| LVVYLSCVAFIN | protein stability index | 0.0206 |

// query Find the measured protein stability index: item PSLALSFWRVVG , target or system Saccharomyces cerevisiae.
// result 0.669

// query Find the measured protein stability index: item FSMRWTFSYWVN , target or system Saccharomyces cerevisiae.
// result 0.497

// query Find the measured protein stability index: item ARWRVGLMRGAS , target or system Saccharomyces cerevisiae.
// result 0.677

// query Find the measured protein stability index: item KKHKHGQKQKIN , target or system Saccharomyces cerevisiae.
// result 0.637

// query Find the measured protein stability index: item ARWRVGLWRHAS , target or system Saccharomyces cerevisiae.
// result 0.688

* * *

System: Saccharomyces cerevisiae
Experiment: protein stability index of tFT-peptide fusion (C-terminal peptide) (PSI (0-1 scale)); higher = more stable (slower turnover)
Details: genetic background: das1 deletion; temperature: 30 C
testReadout: protein stability index
Reply with just the number.

| sequenceData | protein stability index |
| --- | --- |
| FSMLANRITIGL [YJL175W C-terminal 12 aa] | 0.657 |
| SLSLRNHNSSQL [CLN1 C-terminal 12 aa] | 0.708 |
| NKKRLSVDYILT [USV1 C-terminal 12 aa] | 0.689 |
| PLMTVLGLEKKK [DPC13 C-terminal 12 aa] | 0.703 |
| QKAKLNKLDSKK [NOP7 C-terminal 12 aa] | 0.677 |

// query Which protein stability index reading was recorded for the sequence VEVLENLQSVLK [ATP16 C-terminal 12 aa] ?
// result 0.68

// query Which protein stability index reading was recorded for the sequence WKLYQDYLSGKV [YER134C C-terminal 12 aa] ?
// result 0.695

// query Which protein stability index reading was recorded for the sequence DEFCSQRSYTRF [MIN7 C-terminal 12 aa] ?
// result 0.716

// query Which protein stability index reading was recorded for the sequence DGGLAGPVTVRD [FMP45 C-terminal 12 aa] ?
// result 0.69

// query Which protein stability index reading was recorded for the sequence LLLGTVSATNAI [YPL062W C-terminal 12 aa] ?
// result 0.688

// query Which protein stability index reading was recorded for the sequence VELYENQSHMQN [CDC9 C-terminal 12 aa] ?
// result 0.701

// query Which protein stability index reading was recorded for the sequence REGVVPPVGITN [EGO4 C-terminal 12 aa] ?
// result 0.706

// query Which protein stability index reading was recorded for the sequence VNLDVTEDDKQK [STE20 C-terminal 12 aa] ?
// result 0.686

// query Which protein stability index reading was recorded for the sequence AIAKSIPKRVGL [PUT1 C-terminal 12 aa] ?
// result 0.718

// query Which protein stability index reading was recorded for the sequence AFEELYMGNCND [SIR1 C-terminal 12 aa] ?
// result 0.722

// query Which protein stability index reading was recorded for the sequence DFSKFKDSRLYD [YND1 C-terminal 12 aa] ?
// result 0.688

// query Which protein stability index reading was recorded for the sequence QSTAVFFTNKTD [YER076W-A C-terminal 12 aa] ?
// result 0.707

// query Which protein stability index reading was recorded for the sequence ILRQYFTDLASS [REA1 C-terminal 12 aa] ?
// result 0.675

// query Which protein stability index reading was recorded for the sequence IRKYGYNLAAYT [YLR462W C-terminal 12 aa] ?
// result 0.665

// query Which protein stability index reading was recorded for the sequence SLQFIGEETSSL [YDL026W C-terminal 12 aa] ?
// result 0.708

// query Which protein stability index reading was recorded for the sequence QPKIEINVDQYD [SPC1 C-terminal 12 aa] ?
// result 0.691

// query Which protein stability index reading was recorded for the sequence TTPTLPTFRTVA [FKS3 C-terminal 12 aa] ?
// result 0.686

// query Which protein stability index reading was recorded for the sequence DFFDYDLLFQND [PIP2 C-terminal 12 aa] ?
// result 0.767

* * *

Test system: Saccharomyces cerevisiae
Test: protein stability index of tFT-peptide fusion (C-terminal peptide) (PSI (0-1 scale)); higher = more stable (slower turnover)
Conditions: genetic background: wild type; temperature: 30 C
Each entry below lists one item and its recorded protein stability index value.
Reply with just the number.

| sequenceData | numericResult |
| --- | --- |
| LFGAGGGGVEVG | 0.672 |
| ARALCYSFPPAL | 0.77 |
| LISFSGFSPFLW | 0.768 |

// query Which protein stability index reading was recorded for the sequence GPLATACPPALT ?
// result 0.701

// query Which protein stability index reading was recorded for the sequence PSPRSSPPCSAS ?
// result 0.693

// query Which protein stability index reading was recorded for the sequence SLTGYAGESIRF ?
// result 0.774

// query Which protein stability index reading was recorded for the sequence DCSCCGGVSCVV ?
// result 0.639

// query Which protein stability index reading was recorded for the sequence KKKKKHTQYKRK ?
// result 0.7
